Reference source: ChEMBL document CHEMBL2424621

- Test system: HepG2
- experimental_protocol: Antiproliferative activity against human HepG2 cells assessed as growth inhibition after 48 hrs by SRB assay
- Format: functional, cell-based
- condition_description: HepG2, 48 h

line_notation	IC50 (nM)
COc1ccc2c(c[n+]3c4c2ccc2c5c(cc(c24)CC3)OCO5)c1OC(=O)c1ccc2c(c1)OCO2	220
COc1ccc2c(c[n+]3c4c2ccc2c5c(cc(c24)CC3)OCO5)c1OC	710
COc1ccc2c(c[n+]3c4c2ccc2c5c(cc(c24)CC3)OCO5)c1OC(=O)c1ccccc1.[Cl-]	140
COc1ccc2c(c[n+]3c4c2ccc2c5c(cc(c24)CC3)OCO5)c1OC(=O)c1ccc(F)cc1F	130
COc1cc(C(=O)Oc2c(OC)ccc3c2c[n+]2c4c3ccc3c5c(cc(c34)CC2)OCO5)cc(OC)c1OC	320
COc1ccc(C(=O)Oc2c(OC)ccc3c2c[n+]2c4c3ccc3c5c(cc(c34)CC2)OCO5)cc1	410
COc1ccc2c(c[n+]3c4c2ccc2c5c(cc(c24)CC3)OCO5)c1OC(C)=O	190
COc1ccc2c(c[n+]3c4c2ccc2c5c(cc(c24)CC3)OCO5)c1OC(=O)c1ccccc1F	150
